# SYSTEM_UNDER_TEST: human GluR6 (Homo sapiens, UniProt Q13002)
# Sequence (Q13002 32-908): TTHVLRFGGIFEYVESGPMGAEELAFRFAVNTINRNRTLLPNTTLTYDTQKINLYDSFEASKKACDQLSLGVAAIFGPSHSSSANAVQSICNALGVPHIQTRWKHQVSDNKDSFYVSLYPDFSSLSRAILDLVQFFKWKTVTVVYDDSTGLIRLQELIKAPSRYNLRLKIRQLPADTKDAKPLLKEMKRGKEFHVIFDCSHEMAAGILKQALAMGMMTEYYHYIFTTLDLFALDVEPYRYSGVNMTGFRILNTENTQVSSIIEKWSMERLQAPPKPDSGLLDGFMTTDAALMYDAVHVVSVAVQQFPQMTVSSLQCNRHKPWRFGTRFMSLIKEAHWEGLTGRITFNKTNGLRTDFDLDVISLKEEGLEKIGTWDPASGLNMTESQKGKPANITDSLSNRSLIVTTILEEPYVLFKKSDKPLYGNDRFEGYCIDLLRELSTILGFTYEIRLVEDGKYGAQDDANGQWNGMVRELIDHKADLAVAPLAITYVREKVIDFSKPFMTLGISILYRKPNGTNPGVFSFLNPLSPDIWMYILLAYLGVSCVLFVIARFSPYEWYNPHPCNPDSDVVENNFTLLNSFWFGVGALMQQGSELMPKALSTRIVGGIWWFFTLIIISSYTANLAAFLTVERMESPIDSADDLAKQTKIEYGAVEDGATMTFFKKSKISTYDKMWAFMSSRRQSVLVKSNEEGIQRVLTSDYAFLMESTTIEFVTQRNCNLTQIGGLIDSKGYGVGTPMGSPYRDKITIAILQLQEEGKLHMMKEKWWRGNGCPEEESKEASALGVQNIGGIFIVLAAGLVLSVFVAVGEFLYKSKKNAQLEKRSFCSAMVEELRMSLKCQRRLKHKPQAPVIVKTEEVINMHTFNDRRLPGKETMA
# PROCEDURE_TEXT: Patch-clamp electrophysiology, HEK293 cells stably transfected with human GluR6, vs 100 μM KA (Table 2)
pIC50: −log10 of the molar value.
TEST_READOUT: pIC50

Reported pIC50 of O=C(O)[C@@H]1C[C@H]2C[C@@H](COCc3nn[nH]n3)CC[C@H]2CN1 (relative stereo) : < 4.00

Per the records, this compound ( "O=C(O)c1ccc(C[C@H]2CC[C@H]3CN[C@H](C(=O)O)C[C@H]3C2)cc1" ) has pIC50 equal to < 4.00

====

# SYSTEM_UNDER_TEST: human GluR4 (Homo sapiens)
# Construct: expressed in transfected cells; host or cells: HEK293
# Sequence (P48058 21-902): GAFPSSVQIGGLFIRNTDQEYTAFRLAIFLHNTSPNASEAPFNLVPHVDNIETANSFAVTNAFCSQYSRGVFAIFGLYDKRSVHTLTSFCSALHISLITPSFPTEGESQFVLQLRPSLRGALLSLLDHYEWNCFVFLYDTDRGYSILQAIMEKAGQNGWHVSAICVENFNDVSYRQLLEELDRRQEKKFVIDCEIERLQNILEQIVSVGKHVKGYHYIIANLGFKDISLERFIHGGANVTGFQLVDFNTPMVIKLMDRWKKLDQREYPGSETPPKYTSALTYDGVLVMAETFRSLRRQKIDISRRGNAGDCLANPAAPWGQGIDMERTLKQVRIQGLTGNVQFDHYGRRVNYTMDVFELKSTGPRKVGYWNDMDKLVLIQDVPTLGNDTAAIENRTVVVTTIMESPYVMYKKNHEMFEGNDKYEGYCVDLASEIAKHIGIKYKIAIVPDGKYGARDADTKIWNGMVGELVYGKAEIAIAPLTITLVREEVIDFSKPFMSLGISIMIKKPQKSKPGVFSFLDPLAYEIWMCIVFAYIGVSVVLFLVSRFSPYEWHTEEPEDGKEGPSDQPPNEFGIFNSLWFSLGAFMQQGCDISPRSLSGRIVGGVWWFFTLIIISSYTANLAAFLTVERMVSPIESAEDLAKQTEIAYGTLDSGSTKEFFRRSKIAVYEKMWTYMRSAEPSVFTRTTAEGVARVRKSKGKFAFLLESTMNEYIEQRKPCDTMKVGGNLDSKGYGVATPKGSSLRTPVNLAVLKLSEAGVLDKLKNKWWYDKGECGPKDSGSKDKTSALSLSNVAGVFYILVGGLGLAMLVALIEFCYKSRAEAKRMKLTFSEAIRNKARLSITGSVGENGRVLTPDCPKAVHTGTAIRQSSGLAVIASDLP
# PROCEDURE_TEXT: Patch-clamp electrophysiology, HEK293 cells stably transfected with human GluR4, vs 100 μM AMPA (Table 2)
# Type: cell-based
TEST_READOUT: IC50

Query O=C(O)c1ccc(C[C@H]2CC[C@H]3CN[C@H](C(=O)O)C[C@H]3C2)cc1 [D] yields IC50 of > 100 µM

IC50 reported for this molecule O=C(O)[C@@H]1C[C@H]2C[C@@H](COCc3nn[nH]n3)CC[C@H]2CN1 (relative stereo) [Compound A] : > 100 µM

====

# SYSTEM_UNDER_TEST: human GluR1 (Homo sapiens)
# Sequence (P42261 19-906): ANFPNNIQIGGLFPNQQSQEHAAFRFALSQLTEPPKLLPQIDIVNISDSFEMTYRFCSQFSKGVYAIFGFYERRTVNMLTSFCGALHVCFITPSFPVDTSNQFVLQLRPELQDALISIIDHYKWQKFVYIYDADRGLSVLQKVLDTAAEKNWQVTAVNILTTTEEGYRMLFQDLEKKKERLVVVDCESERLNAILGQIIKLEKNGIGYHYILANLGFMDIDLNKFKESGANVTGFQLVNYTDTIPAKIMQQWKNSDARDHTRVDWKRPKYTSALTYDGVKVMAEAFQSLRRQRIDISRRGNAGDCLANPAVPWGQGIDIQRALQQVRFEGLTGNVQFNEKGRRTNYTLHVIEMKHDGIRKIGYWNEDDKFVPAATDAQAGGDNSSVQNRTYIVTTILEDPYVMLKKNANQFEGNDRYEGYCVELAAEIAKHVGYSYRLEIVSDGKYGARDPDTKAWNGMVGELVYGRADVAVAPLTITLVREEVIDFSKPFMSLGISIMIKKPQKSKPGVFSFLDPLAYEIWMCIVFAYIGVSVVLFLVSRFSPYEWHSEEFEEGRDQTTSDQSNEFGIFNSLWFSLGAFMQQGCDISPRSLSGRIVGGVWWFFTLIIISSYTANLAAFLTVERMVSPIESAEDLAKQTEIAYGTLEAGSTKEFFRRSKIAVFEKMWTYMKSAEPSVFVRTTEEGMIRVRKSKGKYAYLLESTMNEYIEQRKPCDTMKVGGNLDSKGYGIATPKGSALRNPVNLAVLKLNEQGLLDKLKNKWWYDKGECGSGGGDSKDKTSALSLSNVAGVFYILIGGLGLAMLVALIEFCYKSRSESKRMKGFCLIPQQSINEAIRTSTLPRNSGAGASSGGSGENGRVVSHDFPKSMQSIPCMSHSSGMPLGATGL
# PROCEDURE_TEXT: Patch-clamp electrophysiology, HEK293 cells stably transfected with human GluR1, vs 100 μM AMPA (Table 2)
pIC50: −log10 of the molar value.
TEST_READOUT: pIC50

The value of pIC50 recorded for O=C(O)[C@@H]1C[C@H]2C[C@@H](COCc3nn[nH]n3)CC[C@H]2CN1 (relative stereo) when tested on human GluR1 (Homo sapiens) reads < 4.00

====

# SYSTEM_UNDER_TEST: human GluR5 (Homo sapiens, UniProt P39086)
# Sequence (P39086 31-905 isoform P39086-2 limits assumed): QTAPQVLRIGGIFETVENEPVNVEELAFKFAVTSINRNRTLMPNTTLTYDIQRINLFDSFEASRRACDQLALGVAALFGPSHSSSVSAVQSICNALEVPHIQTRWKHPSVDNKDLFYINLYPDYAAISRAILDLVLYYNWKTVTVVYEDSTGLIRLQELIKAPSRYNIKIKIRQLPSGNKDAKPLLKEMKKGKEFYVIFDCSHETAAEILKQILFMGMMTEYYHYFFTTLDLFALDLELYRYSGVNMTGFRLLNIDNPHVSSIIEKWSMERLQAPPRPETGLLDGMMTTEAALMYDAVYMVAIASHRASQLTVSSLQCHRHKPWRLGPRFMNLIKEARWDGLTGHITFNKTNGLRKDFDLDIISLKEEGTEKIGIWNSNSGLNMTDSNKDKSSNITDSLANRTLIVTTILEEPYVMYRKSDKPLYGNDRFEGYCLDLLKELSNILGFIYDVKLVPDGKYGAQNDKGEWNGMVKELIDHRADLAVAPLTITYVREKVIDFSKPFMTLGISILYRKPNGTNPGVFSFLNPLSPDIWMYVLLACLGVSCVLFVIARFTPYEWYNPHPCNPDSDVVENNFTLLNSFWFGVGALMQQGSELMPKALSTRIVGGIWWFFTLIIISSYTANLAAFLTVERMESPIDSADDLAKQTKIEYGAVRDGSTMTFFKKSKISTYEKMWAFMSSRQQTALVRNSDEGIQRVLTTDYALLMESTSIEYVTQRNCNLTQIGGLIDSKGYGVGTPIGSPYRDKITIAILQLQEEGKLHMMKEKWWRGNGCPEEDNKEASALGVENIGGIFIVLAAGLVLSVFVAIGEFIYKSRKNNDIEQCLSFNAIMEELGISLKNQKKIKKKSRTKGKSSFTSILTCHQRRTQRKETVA
# PROCEDURE_TEXT: Patch-clamp electrophysiology, HEK293 cells stably transfected with human GluR5, vs 100 μM KA (Table 2)
TEST_READOUT: IC50 (µM)
Write the number in µM without appending the unit.

Query O=C(O)[C@@H]1C[C@H]2C[C@@H](COCc3nn[nH]n3)CC[C@H]2CN1 (relative stereo) [Compound A] yields IC50 of 3.9

====

# SYSTEM_UNDER_TEST: human GluR2 (Homo sapiens, UniProt P42262)
# Sequence (P42262 25-883): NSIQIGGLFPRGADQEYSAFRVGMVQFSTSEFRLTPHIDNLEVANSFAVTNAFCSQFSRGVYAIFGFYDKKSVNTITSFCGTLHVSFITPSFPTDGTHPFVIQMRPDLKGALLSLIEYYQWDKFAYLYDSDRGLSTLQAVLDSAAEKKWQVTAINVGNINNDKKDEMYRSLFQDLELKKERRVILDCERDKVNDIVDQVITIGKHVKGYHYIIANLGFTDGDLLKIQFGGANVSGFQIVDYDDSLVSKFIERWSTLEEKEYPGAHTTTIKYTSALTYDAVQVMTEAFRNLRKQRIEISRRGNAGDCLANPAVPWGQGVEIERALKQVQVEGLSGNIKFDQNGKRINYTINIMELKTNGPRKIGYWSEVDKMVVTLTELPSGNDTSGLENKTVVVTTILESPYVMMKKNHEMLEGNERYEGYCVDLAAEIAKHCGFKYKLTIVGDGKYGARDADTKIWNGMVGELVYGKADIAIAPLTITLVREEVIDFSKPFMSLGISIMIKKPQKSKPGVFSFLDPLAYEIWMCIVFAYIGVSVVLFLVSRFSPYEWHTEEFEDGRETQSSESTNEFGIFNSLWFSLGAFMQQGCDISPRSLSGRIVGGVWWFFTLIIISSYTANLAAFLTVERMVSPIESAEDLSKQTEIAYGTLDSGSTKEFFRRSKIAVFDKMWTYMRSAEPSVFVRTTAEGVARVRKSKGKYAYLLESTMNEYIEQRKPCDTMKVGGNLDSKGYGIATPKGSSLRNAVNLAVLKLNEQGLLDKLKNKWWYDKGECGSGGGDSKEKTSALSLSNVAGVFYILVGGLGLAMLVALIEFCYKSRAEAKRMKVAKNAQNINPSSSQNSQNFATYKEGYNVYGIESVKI
# PROCEDURE_TEXT: Patch-clamp electrophysiology, HEK293 cells stably transfected with human GluR2, vs 100 μM AMPA (Table 2)
TEST_READOUT: IC50

So, O=C(O)[C@@H]1C[C@H]2C[C@@H](COCc3nn[nH]n3)CC[C@H]2CN1 (relative stereo) ? Its IC50 was > 100 µM

# credit: patent US6242462A
